# credit: the supplement of paper PMC7695840

# System: Staphylococcus aureus MW2 (mecA+)
# test_summary: IC50 (growth, competition assay)
# protocol_conditions: fluorescent label: DsRed; cefoxitin: subinhibitory
measured_attribute: IC50 (µM)
The reply should contain only the number, in µM.

O=C(O)c1ccc(-n2nc(-c3ccccc3O)nc2-c2ccccc2O)cc1 [Deferasirox (Exjade)] : 91.6

Exercise: For N#CC(c1ccc(Cl)cc1)c1c(Cl)cc(-n2ncc(=O)[nH]c2=O)cc1Cl (configuration not stated) [CLINACOX] , what is its reported IC50?
Key: 15.2

Exercise: Item under review: CC[C@H]1OC(=O)[C@H](C)[C@@H](O[C@H]2C[C@@](C)(OC)[C@@H](O)[C@H](C)O2)[C@H](C)[C@@H](O[C@@H]2O[C@H](C)C[C@H](N(C)C)[C@H]2O)[C@](C)(O)C[C@@H](C)CN(C)[C@H](C)[C@@H](O)[C@]1(C)O [Azithromycin (Zithromax)] . Reported IC50?
Key: 22.8

Exercise: Which IC50 value is on record for O=C(O[C@H]1CN2CCC1CC2)N1CCc2ccccc2[C@@H]1c1ccccc1 [VESICARE] ?
Key: 47.9

Exercise: What does the data say about its IC50? Entry: CC[C@@H](C(=O)[C@@H](C)[C@@H](O)[C@H](C)[C@@H]1O[C@@H]([C@@H](CC)C(=O)O)CC[C@@H]1C)[C@H]1O[C@]2(C=C[C@@H](O)[C@]3(CC[C@@](C)([C@H]4CC[C@](O)(CC)[C@H](C)O4)O3)O2)[C@H](C)C[C@@H]1C [KOKCISAN]
Key: 31.9

Exercise: // IC50 lookup, key: CCCCC[C@H](CC(=O)NO)C(=O)N[C@H](C(=O)N1CCC[C@H]1CO)C(C)C [ACTINONIN]
Key: 27.8

###

This listing pairs compounds with measured pIC50.
# System: Staphylococcus aureus MW2 delta-mecA (mecA-)
# test_summary: IC50 (growth, competition assay)
# protocol_conditions: fluorescent label: DsRed; cefoxitin: subinhibitory
pIC50: −log10 of the molar value.

Use these answered entries as a reference point.
C[C@@H](Oc1cc(-c2cnn(C3CCNCC3)c2)cnc1N)c1c(Cl)ccc(F)c1Cl : 4.68
C[C@@H]1CN(c2c(F)c(N)c3c(=O)c(C(=O)O)cn(C4CC4)c3c2F)C[C@H](C)N1 [ZAGAM] : > 5.01
CO[C@H]1C[C@H](O[C@H]2[C@H](C)[C@@H](O[C@@H]3O[C@H](C)C[C@H](N(C)C)[C@H]3OC(C)=O)[C@@H](C)C[C@@]3(CO3)C(=O)[C@H](C)[C@@H](OC(C)=O)[C@@H](C)[C@@H](C)OC(=O)[C@@H]2C)O[C@@H](C)[C@@H]1OC(C)=O : > 5.01
Cc1cc(OCCCS(C)(=O)=O)cc(C)c1-c1cccc(COc2ccc3c(c2)OC[C@H]3CC(=O)O)c1 : > 5.01
CCCCCC(=O)Cc1cc(O)cc(O)c1C(=O)Oc1cc(CC(=O)CCCCC)c(C(=O)O)c(OC)c1 : 4.34
CC[C@H](C)C(=O)O[C@H]1C[C@H](O)C=C2C=C[C@H](C)[C@H](CC[C@@H](O)C[C@@H](O)CC(=O)O)[C@H]21 [Pravastatin sodium] : > 5.01

Now for the compound whose pIC50 we want.
Exercise: # query: pIC50 | item COc1cc(Cc2cnc(N)nc2N)cc(OC)c1OC [TRIMPEX] | system: Staphylococcus aureus MW2 delta-mecA (mecA-)
Key: > 5.01
